A collection of compounds and their measured pIC50
- Test system: PBMCs
- ASSAY_OVERVIEW: LPS-induced IL-8 release in PBMC cells (assay b)
- Format: cell-based, human
- TEST_SETTINGS: Homo sapiens, PBMC; LPS-stimulated PBMCs; read-out: IC50 Values for Inhibition of Cytokine Release, PBMCs IL-8
Please express pIC50 as -log10 of the molar concentration.

{"COMPOUND": "COc1cccc(Nc2cc(Oc3ccc(NC(=O)Nc4cc(C(C)(C)C)cc(CC(N)=O)c4OC)c(Cl)c3Cl)ccn2)c1 [38(af)]", "pIC50": 8.59}
{"COMPOUND": "COc1c(NC(=O)Nc2ccc(Oc3ccnc(Nc4cnn(C)n4)c3)c3ccccc23)cc(C(C)(C)C)cc1P(C)(C)=O [15(ar)]", "pIC50": 9.10}
{"COMPOUND": "COc1c(CC(N)=O)cc(C(C)(C)C)cc1NC(=O)Nc1ccc(Oc2ccnc(Nc3cccc(OS(C)(=O)=O)c3)c2)c2ccccc12 [38(r)]", "pIC50": 8.72}

Attention now shifts to the item below.
Given the entry COc1cc(Nc2cc(Oc3ccc(NC(=O)Nc4cc(C(C)(C)C)cc(CC(N)=O)c4OC)c4ccccc34)ccn2)cc(C(N)=O)c1 [Example 47] , report its measured pIC50.
8.66
